Recorded values, source patent US20100040552A1.

- tested-on: PR (progesterone receptor) (Homo sapiens)
- Sequence (P06401 1-933): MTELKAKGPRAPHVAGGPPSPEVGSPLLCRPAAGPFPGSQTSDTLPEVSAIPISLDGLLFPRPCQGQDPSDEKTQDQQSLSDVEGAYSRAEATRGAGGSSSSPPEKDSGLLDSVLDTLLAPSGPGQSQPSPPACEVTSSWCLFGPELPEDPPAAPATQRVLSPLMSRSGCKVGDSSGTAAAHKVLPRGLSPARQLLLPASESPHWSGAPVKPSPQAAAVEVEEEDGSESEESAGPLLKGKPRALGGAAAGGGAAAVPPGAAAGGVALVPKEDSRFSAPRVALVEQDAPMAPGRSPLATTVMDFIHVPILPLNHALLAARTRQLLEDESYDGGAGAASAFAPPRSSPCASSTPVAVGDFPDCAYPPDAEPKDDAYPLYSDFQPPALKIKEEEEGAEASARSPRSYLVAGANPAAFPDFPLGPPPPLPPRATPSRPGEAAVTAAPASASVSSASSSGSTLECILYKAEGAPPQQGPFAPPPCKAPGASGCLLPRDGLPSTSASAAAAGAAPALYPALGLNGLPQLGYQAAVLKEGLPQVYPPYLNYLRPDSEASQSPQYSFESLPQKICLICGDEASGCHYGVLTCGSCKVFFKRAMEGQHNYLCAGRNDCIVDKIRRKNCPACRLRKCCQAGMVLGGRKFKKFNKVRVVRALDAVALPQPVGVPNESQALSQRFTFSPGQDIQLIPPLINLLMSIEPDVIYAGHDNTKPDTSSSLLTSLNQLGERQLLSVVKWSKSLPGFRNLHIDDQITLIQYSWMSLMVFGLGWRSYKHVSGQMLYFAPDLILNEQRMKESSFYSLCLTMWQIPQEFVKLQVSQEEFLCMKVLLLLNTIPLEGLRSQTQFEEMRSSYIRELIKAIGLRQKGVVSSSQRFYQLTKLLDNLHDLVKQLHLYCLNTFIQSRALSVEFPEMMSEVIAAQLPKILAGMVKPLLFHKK

{"columns": ["compound", "IC50"],
 "data": [
  ["C[C@@H]1C[C@H]2[C@@H]3CCC4=CC(=O)C=C[C@]4(C)[C@@]3(F)[C@@H](O)C[C@]2(C)[C@@]1(O)C(=O)CO [Dexamethasone, dexamethasone]", "> 1000 nM"]
]}
